Source: paper PMC10820640

# testDetails: Intravenous pharmacokinetic study of CBD:HP-β-CD solution in piglets (UHPLC-MS/MS plasma quantification)
# Assay type: in vivo, Large White piglets
# measurementContext: both sexes, Large White, pig; piglet plasma, IV 0.3 mg/kg CBD, non-compartmental analysis, normalized to dose, n = 3
quantityKind: AUC(0-t) (ng·h/mL)
I only need the number, in ng·h/mL, no unit after it.

Problem: Annotate the compound C=C(C)[C@@H]1CCC(C)=C[C@H]1c1c(O)cc(CCCCC)cc1O [CBD, Cannabidiol] with its measured AUC(0-t).
Solution: 639

Problem: Annotate the compound C=C(C)C1CCC(C(=O)O)=CC1c1c(O)cc(CCCCC)cc1O (centres unmarked) [7-COOH-CBD, 7-COOH-cannabidiol] with its measured AUC(0-t).
Solution: 3930

* * *

Give measured Cmax for each item. Keep answers brief.
# testDetails: Intravenous pharmacokinetic study of CBD:HP-β-CD solution in piglets (UHPLC-MS/MS plasma quantification)
# Format: in vivo, Large White piglets
# measurementContext: both sexes, Large White, pig; piglet plasma, IV 0.3 mg/kg CBD, non-compartmental analysis, normalized to dose, n = 3
I only need the number, in ng/mL, no unit after it.

Problem: Annotate the molecule C=C(C)[C@@H]1CCC(C)=C[C@H]1c1c(O)cc(CCCCC)cc1O [CBD, Cannabidiol] with its measured Cmax.
Solution: 600

Problem: Annotate the molecule C=C(C)C1CCC(C(=O)O)=CC1c1c(O)cc(CCCCC)cc1O (centres unmarked) [7-COOH-CBD, 7-COOH-cannabidiol] with its measured Cmax.
Solution: 610

* * *

# testDetails: Intravenous pharmacokinetic study of CBD:HP-β-CD solution in piglets (UHPLC-MS/MS plasma quantification)
# Assay type: in vivo, Large White piglets
# measurementContext: both sexes, Large White, pig, plasma, 0.3 mg/kg; piglets, IV, two-compartment model; read-out: Cl (clearance) (converted)
quantityKind: clearance (mL/min)
I only need the number, in mL/min, no unit after it.

Problem: Annotate the compound C=C(C)[C@@H]1CCC(C)=C[C@H]1c1c(O)cc(CCCCC)cc1O [CBD, Cannabidiol] with its measured clearance.
Solution: 25.2

* * *

# testDetails: Intravenous pharmacokinetic study of CBD:HP-β-CD solution in piglets (UHPLC-MS/MS plasma quantification)
# Type: in vivo, Large White piglets
# measurementContext: both sexes, Large White, pig; piglets, IV 0.3 mg/kg CBD:HP-β-CD solution, experimental plasma profile; read-out: apparent distribution half-life (converted)
quantityKind: half-life (min)
I only need the number, in min, no unit after it.

Problem: Annotate the molecule C=C(C)[C@@H]1CCC(C)=C[C@H]1c1c(O)cc(CCCCC)cc1O [CBD, Cannabidiol] with its measured half-life.
Solution: 15
